TGT: Cytochrome P450 2C19 (Homo sapiens) (UniProt P33261)
Sequence (P33261 whole entry, looked up): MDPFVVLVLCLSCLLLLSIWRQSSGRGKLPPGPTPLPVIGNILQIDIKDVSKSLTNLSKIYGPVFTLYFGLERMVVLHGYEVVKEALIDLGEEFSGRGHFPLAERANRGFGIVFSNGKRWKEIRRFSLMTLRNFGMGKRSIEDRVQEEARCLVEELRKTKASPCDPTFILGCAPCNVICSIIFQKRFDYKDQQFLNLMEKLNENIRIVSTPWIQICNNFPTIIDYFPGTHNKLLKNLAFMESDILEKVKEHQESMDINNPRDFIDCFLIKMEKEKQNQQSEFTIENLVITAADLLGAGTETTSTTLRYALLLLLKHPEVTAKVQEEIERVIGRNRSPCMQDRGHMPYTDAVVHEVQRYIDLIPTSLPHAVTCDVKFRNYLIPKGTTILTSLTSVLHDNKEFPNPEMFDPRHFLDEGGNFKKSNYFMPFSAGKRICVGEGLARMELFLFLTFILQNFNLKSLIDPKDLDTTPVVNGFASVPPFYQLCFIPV
TEST METHOD NOTES: blockers of cytochrome P450 2C19 activity – biochemical, luminescence, ADME assay, primary screen (AID 778);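 further: plate controls were negative control wells for no effect and 2.5 mM tranylcypromine positive control for full effect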
SETTINGS: CYP2C19 Supersomes, luciferin-H EGE luminescence, 30 min; at 5 µM; stronger effect = higher value
The campaign covered roughly 96,000 compounds. About 20,000 (21%) were called active. The list is a sample of the results.
// values below are reported inhibition
Quick reminder: number only, in %, skip the unit.

Input line: Consider the compound `COC(=O)c1ccccc1NC(=O)c1cncc(Br)c1` and give its measured inhibition.
Output line: 30.8

Input line: Consider the compound `Cc1ccccc1NC(=O)c1ccccc1` and give its measured inhibition.
Output line: -2

Input line: Consider the compound `Cc1ccc(Nc2nc(-c3sc(NC(=O)c4ccccc4)nc3C)cs2)cc1` and give its measured inhibition.
Output line: 17.1

Input line: Consider the compound `CCN1C(=O)CS/C1=N\c1nccs1` and give its measured inhibition.
Output line: 19

Input line: Consider the compound `O=C(O)/C=C/C(=O)Nc1ccc(F)cc1F` and give its measured inhibition.
Output line: 5.3

Input line: Consider the compound `CCN1CCN(C(=O)c2ccccc2N(C)S(=O)(=O)c2ccc(C)cc2)CC1` and give its measured inhibition.
Output line: -7.6
